# Tested on: P. aeruginosa AK109
# measurementProtocol: MIC, agar plate dilution method
# Assay type: cell-based, Pseudomonas aeruginosa
# runParameters: Pseudomonas aeruginosa; P. aeruginosa AK109; 10^6 CFU/ml; Sensitivity Disk Agar; read-out: Minimum Inhibitory Concentration
Entries annotated with measured MIC

See these solved cases before continuing.
C[N+]1(CC2=C(C(=O)[O-])N3C(=O)C(NC(=O)C(=NOC4(C(=O)O)CCCC4)c4csc(N)n4)C3SC2)Cc2cc(O)c(O)cc2C1 (stereo not drawn) [Ex. 12-C] | ≤ 0.05 µg/mL
CC(C)ON=C(C(=O)NC1C(=O)N2C(C(=O)[O-])=C(C[N+]3(C)Cc4cc(O)c(O)cc4C3)CSC12)c1csc(N)n1 (stereo not drawn) [Ex. 9-C] | ≤ 0.05 µg/mL
CC(C)(ON=C(C(=O)NC1C(=O)N2C(C(=O)[O-])=C(C[N+]3(C)Cc4cc(O)c(O)cc4C3)CSC12)c1csc(N)n1)C(=O)O (stereo not drawn) [Ex. 7-E] | ≤ 0.05 µg/mL
CO/N=C(\C(=O)NC1C(=O)N2C(C(=O)[O-])=C(C[N+]3(C)Cc4ccc(OC(C)=O)cc4C3)CSC12)c1csc(N)n1 (stereo not drawn) [Ex. 1-F] | 3.12 µg/mL

// query # return recorded MIC for input CCON=C(C(=O)NC1C(=O)N2C(C(=O)[O-])=C(C[N+]3(C)Cc4cc(O)c(O)cc4C3)CSC12)c1csc(N)n1 (stereo not drawn) [Ex. 5-D]
// result 0.1 µg/mL

// query Supply measured MIC of C[N+]1(CC2=C(C(=O)[O-])N3C(=O)C(NC(=O)C(=NOC4(C(=O)O)CCC4)c4csc(N)n4)C3SC2)Cc2cc(O)c(O)cc2C1 (stereo not drawn) [Ex. 11-F] in your reply.
// result ≤ 0.05 µg/mL

###

# Test system: E. coli CSH
propertyLabel: MIC (µg/mL)
Note: unit µg/mL is implicit; provide only the numeric part.

Some compounds with recorded MIC:
CO/N=C(\C(=O)NC1C(=O)N2C(C(=O)[O-])=C(C[N+]3(C)Cc4ccc(OC(C)=O)cc4C3)CSC12)c1csc(N)n1 (stereo not drawn) | 0.78
CC(C)ON=C(C(=O)NC1C(=O)N2C(C(=O)[O-])=C(C[N+]3(C)Cc4cc(O)c(O)cc4C3)CSC12)c1csc(N)n1 (stereo not drawn) | 0.1
CC(C)(O/N=C(\C(=O)N[C@@H]1C(=O)N2C(C(=O)[O-])=C(C[n+]3ccccc3)CS[C@H]12)c1csc(N)n1)C(=O)O [Ceftazidime, reference compound] | 0.1

--- query ---
// query Find MIC for CC(C)(ON=C(C(=O)NC1C(=O)N2C(C(=O)[O-])=C(C[N+]3(C)Cc4cc(O)c(O)cc4C3)CSC12)c1csc(N)n1)C(=O)O (stereo not drawn) on E. coli CSH and write it down.
// result 0.1

###

# System: P. cepacia 23
# measurementProtocol: MIC, agar plate dilution method
# Assay type: cell-based, Pseudomonas cepacia
# runParameters: Pseudomonas cepacia 23
propertyLabel: antibacterial activity relative to the compound of Reference Example

CON=C(C(=O)NC1C(=O)N2C(C(=O)[O-])=C(C[N+]3(C)Cc4cc(O)c(O)cc4C3)CSC12)c1csc(N)n1 (stereo not drawn) [Ex. 4-D] | at least 32 times
CO/N=C(\C(=O)NC1C(=O)N2C(C(=O)[O-])=C(C[N+]3(C)Cc4cc(OC(C)=O)c(OC(C)=O)cc4C3)CSC12)c1csc(N)n1 (stereo not drawn) [Ex. 3-D] | at least 32 times
C[N+]1(CC2=C(C(=O)[O-])N3C(=O)C(NC(=O)C(=NOC4(C(=O)O)CCCC4)c4csc(N)n4)C3SC2)Cc2cc(O)c(O)cc2C1 (stereo not drawn) [Ex. 12-C] | at least 32 times

###

The following are reported MIC results, target or system E. coli CSH.
The answer is to be given in µg/mL; state only the numeric part.

CON=C(C(=O)NC1C(=O)N2C(C(=O)[O-])=C(C[N+]3(C)Cc4cc(O)c(O)cc4C3)CSC12)c1csc(N)n1 (stereo not drawn) [Ex. 4-D] | 1.56
C[N+]1(CC2=C(C(=O)[O-])N3C(=O)C(NC(=O)C(=NOC4CCCC4)c4csc(N)n4)C3SC2)Cc2cc(O)c(O)cc2C1 (stereo not drawn) [Ex. 13-D] | 0.1

// query Entry C[N+]1(CC2=C(C(=O)[O-])N3C(=O)C(NC(=O)C(=NOC4(C(=O)O)CCCC4)c4csc(N)n4)C3SC2)Cc2cc(O)c(O)cc2C1 (stereo not drawn) [Ex. 12-C] needs its MIC filled in; supply it.
// result 0.1

###

Item-by-item account of MIC
# Test system: S. marcescens No. 16-2
# measurementProtocol: MIC, agar plate dilution method
# Format: cell-based
# runParameters: Serratia marcescens, NO.162; S. marcescens No. 16-2; 10^6 CFU/ml; Sensitivity Disk Agar; read-out: Minimum Inhibitory Concentration
Expressed in µg/mL, but write only the number.

Known results for compounds:
C[N+]1(CC2=C(C(=O)[O-])N3C(=O)C(NC(=O)C(=NOC4(C(=O)O)CCC4)c4csc(N)n4)C3SC2)Cc2cc(O)c(O)cc2C1 (stereo not drawn) | 0.2
CO/N=C(\C(=O)NC1C(=O)N2C(C(=O)[O-])=C(C[N+]3(C)Cc4ccc(O)cc4C3)CSC12)c1csc(N)n1 (stereo not drawn) | 6.25
CO/N=C(\C(=O)NC1C(=O)N2C(C(=O)[O-])=C(C[N+]3(C)Cc4cc(OC(C)=O)c(OC(C)=O)cc4C3)CSC12)c1csc(N)n1 (stereo not drawn) | 6.25

// query Write down MIC measured for item CON=C(C(=O)NC1C(=O)N2C(C(=O)[O-])=C(C[N+]3(C)Cc4cc(O)c(O)cc4C3)CSC12)c1csc(N)n1 (stereo not drawn)
// result 6.25

// query Supply MIC value. Item: C[N+]1(CC2=C(C(=O)[O-])N3C(=O)C(NC(=O)C(=NOC4CCCC4)c4csc(N)n4)C3SC2)Cc2cc(O)c(O)cc2C1 (stereo not drawn)
// result 0.78

// query Answer with the recorded MIC for the compound listed here: C[N+]1(CC2=C(C(=O)[O-])N3C(=O)C(NC(=O)C(=NOC4(C(=O)O)CC4)c4csc(N)n4)C3SC2)Cc2cc(O)c(O)cc2C1 (stereo not drawn)
// result 0.39

###

Dear all, this message contains MIC results, target or system E. coli CSH.

CO/N=C(\C(=O)NC1C(=O)N2C(C(=O)[O-])=C(C[N+]3(C)Cc4ccc(O)cc4C3)CSC12)c1csc(N)n1 (stereo not drawn) | 0.39 µg/mL
C[N+]1(CC2=C(C(=O)[O-])N3C(=O)C(NC(=O)C(=NOCC(=O)O)c4csc(N)n4)C3SC2)Cc2cc(O)c(O)cc2C1 (stereo not drawn) | 0.1 µg/mL
CO/N=C(\C(=O)NC1C(=O)N2C(C(=O)[O-])=C(C[N+]3(C)Cc4ccccc4C3)CSC12)c1csc(N)n1 (stereo not drawn) [Reference Ex., reference compound] | 0.39 µg/mL
CO/N=C(\C(=O)N[C@@H]1C(=O)N2C(C(=O)O)=C(COC(C)=O)CS[C@H]12)c1csc(N)n1 [Cefotaxime, reference compound] | 0.1 µg/mL
CCON=C(C(=O)NC1C(=O)N2C(C(=O)[O-])=C(C[N+]3(C)Cc4cc(O)c(O)cc4C3)CSC12)c1csc(N)n1 (stereo not drawn) | 0.2 µg/mL

// query Provide the reported MIC (system: E. coli CSH) for CO/N=C(\C(=O)NC1C(=O)N2C(C(=O)[O-])=C(C[N+]3(C)Cc4cc(OC(C)=O)c(OC(C)=O)cc4C3)CSC12)c1csc(N)n1 (stereo not drawn)
// result 1.56 µg/mL

###

# System: P. maltophilia IID 1275
# measurementProtocol: MIC, agar plate dilution method
# Assay type: cell-based, Pseudomonas maltophilia
# runParameters: Stenotrophomonas maltophilia, IID1275; P. maltophilia IID 1275; 10^6 CFU/ml; Sensitivity Disk Agar; read-out: Minimum Inhibitory Concentration
Please assign NOT MET whenever MIC is at or above 6 µg/mL, and MET whenever it is below.

C[N+]1(CC2=C(C(=O)[O-])N3C(=O)C(NC(=O)C(=NOC4(C(=O)O)CCC4)c4csc(N)n4)C3SC2)Cc2cc(O)c(O)cc2C1 (centres unmarked) | MET
C[N+]1(CC2=C(C(=O)[O-])N3C(=O)C(NC(=O)C(=NOCC(=O)O)c4csc(N)n4)C3SC2)Cc2cc(O)c(O)cc2C1 (centres unmarked) | NOT MET
CO/N=C(\C(=O)NC1C(=O)N2C(C(=O)[O-])=C(C[N+]3(C)Cc4cc(OC(C)=O)c(OC(C)=O)cc4C3)CSC12)c1csc(N)n1 (centres unmarked) | NOT MET
CO/N=C(\C(=O)N[C@@H]1C(=O)N2C(C(=O)O)=C(COC(C)=O)CS[C@H]12)c1csc(N)n1 [Cefotaxime, reference compound] | NOT MET
C[N+]1(CC2=C(C(=O)[O-])N3C(=O)C(NC(=O)C(=NOC4CCCC4)c4csc(N)n4)C3SC2)Cc2cc(O)c(O)cc2C1 (centres unmarked) | NOT MET

// query Check if MIC falls below 6 µg/mL for CC(C)(ON=C(C(=O)NC1C(=O)N2C(C(=O)[O-])=C(C[N+]3(C)Cc4cc(O)c(O)cc4C3)CSC12)c1csc(N)n1)C(=O)O (centres unmarked) .
// result MET

// query Lab log: compare recorded MIC with 6 µg/mL; is it strictly lower for CO/N=C(\C(=O)NC1C(=O)N2C(C(=O)[O-])=C(C[N+]3(C)Cc4ccc(O)cc4C3)CSC12)c1csc(N)n1 (centres unmarked) ?
// result NOT MET

// query Report whether reported MIC is lower than 6 µg/mL (strictly) for CC(C)ON=C(C(=O)NC1C(=O)N2C(C(=O)[O-])=C(C[N+]3(C)Cc4cc(O)c(O)cc4C3)CSC12)c1csc(N)n1 (centres unmarked)
// result MET

// query # TODO verify MIC < 6 µg/mL strictly for this molecule: C[N+]1(CC2=C(C(=O)[O-])N3C(=O)C(NC(=O)C(=NOC4(C(=O)O)CCCC4)c4csc(N)n4)C3SC2)Cc2cc(O)c(O)cc2C1 (centres unmarked)
// result NOT MET

// query Hello, is MIC of the following molecule strictly smaller than 6 µg/mL? CON=C(C(=O)NC1C(=O)N2C(C(=O)[O-])=C(C[N+]3(C)Cc4cc(O)c(O)cc4C3)CSC12)c1csc(N)n1 (centres unmarked)
// result NOT MET

// query Determine if C[N+]1(CC2=C(C(=O)[O-])N3C(=O)C(NC(=O)C(=NOC4(C(=O)O)CC4)c4csc(N)n4)C3SC2)Cc2cc(O)c(O)cc2C1 (centres unmarked) shows MIC strictly lower than 6 µg/mL.
// result MET
